Below, each entry is listed alongside its reported cytotoxicity at 70.5 h.
# EXPERIMENT_NOTES: Human HepG2 cell viability assay in 384 well format
# Type: toxicity, cell-based
# Design: dose 125 nL, time 70.5 hour; concentration not given beside the values
# CONDITIONS: HepG2 cells, read-out: Inhibition
State just the number; it will be interpreted in %.

Some entries whose results are on file:
1. Cc1ccc(CN(C)Cc2nc3c(cnn3C)c(=O)[nH]2)c(C)c1 | 7.52
2. CCOC[C@H]1CC[C@H]2[C@H](CCN2C(=O)c2ccncc2F)O1 | -8.92
3. CCN1CCC(c2nnc(CN3CCCC3)n2C2CC2)CC1 | -9.82
4. CCN1CCCC(O)(CNCc2ccncc2)C1 (stereo not drawn) | 14.1
5. CN1CCOCC2(CCCN(C(=O)c3cn(C)cn3)C2)C1 (stereo not drawn) | 0.515

IN: Need cytotoxicity at 70.5 h of O=C1OCCCN1Cc1nc(-c2ccc(N3CCCCC3)cc2)no1 , thanks.
OUT: -11.4

IN: Given the molecule CC(C(=O)N1CCC(Nc2cccnn2)CC1)n1ccnc1 (stereo not drawn) , what is its reported cytotoxicity at 70.5 h?
OUT: -8.6

IN: I would be grateful if you could share the reported cytotoxicity at 70.5 h for CN(C)Cc1cnc(C2CN(C(=O)c3ccccc3Cl)CCO2)[nH]1 (stereo not drawn) .
OUT: -1.46

IN: For the molecule shown here, O=C(c1ccc(Cl)o1)N1CCCC(c2cc(C(F)(F)F)[nH]n2)C1 (stereo not drawn) , give the reported cytotoxicity at 70.5 h.
OUT: -3.16

IN: What does the data say about its cytotoxicity at 70.5 h? Entry: Cc1cnc(CN2CCC(N(C)Cc3nnc(C4CC4)n3C)C2)cn1 (stereo not drawn)
OUT: -11

IN: Fill in: cytotoxicity at 70.5 h of OC1CCN(Cc2c(C3CCCNC3)[nH]c3ncccc23)CC1 (stereo not drawn) is ___
OUT: -22.4

IN: For the molecule COC(=O)C1CN(Cc2ccc(-c3ccncc3)cc2F)C[C@@H](C)O1 (stereo partly drawn) , what cytotoxicity at 70.5 h is on record?
OUT: 11.8

IN: // lookup cytotoxicity at 70.5 h for CC(C)c1nnc2n1CCN(Cc1ccc3c(c1)OCO3)CC2
OUT: -11.5

IN: So what does the record say about cytotoxicity at 70.5 h for O=C(c1ccc[nH]1)N1CCc2cc(S(=O)(=O)N3CCOCC3)ccc2C1 ?
OUT: 50.8

IN: Recorded cytotoxicity at 70.5 h for Cc1ccc(CC(=O)N2CC[C@@H]3CN(CCN(C)C)CCO[C@@H]3C2)cc1 , please?
OUT: -8.7

IN: Please look up its cytotoxicity at 70.5 h: CCS(=O)(=O)N1CCOC2(CCCN(c3cnccn3)C2)C1 (stereo not drawn)
OUT: -6.84

IN: If you can, please state the reported cytotoxicity at 70.5 h value of CCCc1cc(C(=O)N2CCC3(CCCNC3=O)C2)cs1 (stereo not drawn) .
OUT: -0.581

IN: Return reported cytotoxicity at 70.5 h; argument: CCN1CCC(NC(=O)c2ccc(F)cc2I)CC1
OUT: -7.1

IN: Request the reported cytotoxicity at 70.5 h associated with CN(C)S(=O)(=O)N1CCCC(CCC(=O)Nc2ccc(Cl)cc2)C1 (stereo not drawn)
OUT: 42.2
